Origin of the recorded values: patent US20230236193A1

# Test system: UB10712Siglec+Unique (SLBRUB10712, GST fusion), S. gordonii strain UB10712, chimera +Hsa FG loop
# assayExplanation: ELISA, biotinylated sialoglycan binding to immobilized GST-adhesin chimera
# Design: species or system Streptococcus gordonii strain UB10712
# conditionLabel: +SLBRHsa FG loop; one-point, 1-2 μg/ml biotinylated glycans
reportedMetric: relative binding strength (A450)

INSERT INTO results (molecule, assayvalue) VALUES
  ('CC(=O)N[C@H]1[C@H]([C@H](O)[C@H](O)CO)O[C@@](O[C@H]2[C@@H](O)[C@@H](CO)O[C@@H](O[C@H]3[C@H](O[C@@H]4O[C@@H](C)[C@@H](O)[C@@H](O)[C@@H]4O)[C@@H](NC(C)=O)C(O)O[C@@H]3COS(=O)(=O)O)[C@@H]2O)(C(=O)O)C[C@@H]1O (stereo partly drawn) [6S-sLe^X]', '+ (A450 = 0.3-0.7)'),
  ('CC(=O)N[C@H]1[C@H]([C@H](O)[C@H](O)CO)O[C@@](O[C@H]2[C@@H](O)[C@@H](CO)O[C@@H](O[C@H]3[C@H](O)[C@@H](CO)OC(O)[C@@H]3NC(C)=O)[C@@H]2O)(C(=O)O)C[C@@H]1O (stereo partly shown) [sLe^C, Neu5Acα2-3Galβ1-3GlcNAc]', '+ (A450 = 0.3-0.7)'),
  ('CC(=O)N[C@H]1[C@H]([C@H](O)[C@H](O)CO)O[C@@](O[C@H]2[C@@H](O)[C@@H](CO)O[C@@H](O[C@H]3[C@H](O)[C@@H](NC(C)=O)C(O)O[C@@H]3CO)[C@@H]2O)(C(=O)O)C[C@@H]1O (stereo partly shown) [3′sLn, Neu5Acα2-3Galβ1-4GlcNAc]', '++ (A450 = 0.7-1)'),
  ('CC(=O)N[C@H]1[C@H]([C@H](O)[C@H](O)CO)O[C@@](O[C@H]2[C@@H](O)[C@@H](CO)O[C@@H](O[C@H]3[C@@H](O)[C@@H](CO)OC(O)[C@@H]3NC(C)=O)[C@@H]2O)(C(=O)O)C[C@@H]1O (stereo partly shown) [sTa, Neu5Acα2-3Galβ1-3GalNAc]', '++ (A450 = 0.7-1)');
